# target: T1, SARS-CoV-2 spike receptor-binding domain, recombinant (SARS-CoV-2, reference sequence, UniProt P0DTC2)
# T1 construct: also called RBD; source: bought: Sino Biologicals, baculovirus-insect cells
# assay explanation: ELISA
observed property: OD450 (OD450)
Answers are plain numbers, in OD450.

binder	observed property	reported measurement
FI 1C (antibody, V domains shown, source: HEK293T, transfected; culture supernatant or purified) VH: EVQLVESGGGLVKPGGSLRLSCAASGFTFSDYYMSWIRQAPGKGLEWVSYISSSGSTIYYADSVKGRFTISRDNAKNSLYLQMNSLRAEDTAVYYCARRSNRFLIAFDIWGQGTMVTVSS VL: QSALTQPASVSGSPGQTITISCTGTSSDVGGYNYVSWYQQHPGKAPKLMIYEVSNRPSGVSNRFSGSKSGNTASLTISGLQAEDEADYYCSSYTSSSTLVVFGGGTKLTVP	OD450	1.22

// each binder listed below needs its OD450
1. EZ 7A (antibody, V domains shown, source: HEK293T, transfected; culture supernatant or purified) VH: EVQLVESGAEVKKPGESLKISCKGSGYSFTSYWIGWVRQMPGKGLEWMGIIYPGDSDTRYSPSFQGQVTISADKSISTAYLQWSSLKASDTAMYYCARGWVYRGFPYYGMDVWGQGTMVTVSS VL: QSALTQPRSVSGSPGQSVTISCTGTSSDVGGYNYVSWYQQHPGKAPKLMIYDVSKRPSGVPDRFSGSKSGNTASLTISGLQAEDEADYYCCSYAGSYTLVFGGGTKLTVL
2. FM 7B (antibody, V domains shown, source: HEK293T, transfected; culture supernatant or purified) VH: EVQLVQSGAEVKKPGASVKVSCKASGYTFTSYAMHWVRQAPGQRLEWMGWINTGNGNTKYSQKFQGRVTITRDTSASTAYMELSSLRSEDTAVYYCARDPTYCSSTSCYPFSWFDPWGQGTLVTVSS VL: NFMLTQPPSVSVAPGQTARITCGGNNIGSKSVHWYQQKPGQAPVLVVYDDSDRPSGIPERFSGSNSGNTATLTISRVEAGDEADYYCQVWDSTGDHSWVFGGGTKLTVL
3. FD 11A (antibody, V domains shown, source: HEK293T, transfected; culture supernatant or purified) VH: EVQLVESGGGVVQPGRSLRLSCAASGFTFSSYGMHWVRQAPGKGLEWVAVIWYDGSNKYYADSVKGRFTISRDNSKNTLYLQMNSLRAEDTAVYYCAKGPDILTGYYNYYYYGMDVWGQGTMVTVSS VL: QSVLTQPPSVSGAPGQRVTISCTGSSSNIGAGYDVHWYQQLPGTAPKLLIYGNSNRPSGVPDRFSGSKSGTSASLAITGLQAEDEADYYCQSYDSSLSGFYVVFGGGTKLTVL
4. FI 4A (antibody, V domains shown, source: HEK293T, transfected; culture supernatant or purified) VH: EVQLVESGGGLVKPGGSLRLSCAASGFTFSRFSMNWVRQAPGKGLEWVSSISSSGSYIYFADSVKGRFTISRDNAKNSLYLQMNSLRAEDTAIYYCATYLFGDSHTYWGQGTLVTVSS VL: QSVLTQPHSVSESPGKTVTISCTGSSGSIASNYVQWYQQRPGSAPTTVIYEDNQRPSGVPDRFSGSIDSSSNSASLTISGLKTEDEADYYCQSYDSSNLHWVFGGGTKLTVL

[out]
1. 1.12
2. 1.27
3. 1.17
4. 1.12
